Values from PubChem BioAssay AID1486

experiment: parental Ba/F3 cell viability inhibition, counter-screen for JAK2V617F inhibitor project, murine pro-B, CellTiter-Glo luminescence (AID 1486); details: CellTiter-Glo ATP luminescence, at 5.6 µM, hits give high values;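 note: 0% = DMSO wells and 100% = JAK Inhibitor I control wells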
Out of some 220,000 compounds screened, about 2,400 (1.1%) were called active. The full list was thinned out, with actives kept by preference.
Property measured: inhibition

* CCN(CC)c1ccc(/C=N/Nc2nc(C)cc(C)n2)c(O)c1 | 3.74% (inactive)
* COC(=O)CNC(=O)c1ccccc1F | 3.61% (inactive)
* CCCCCCn1c(CN2CCCCC2)nc2c1c(=O)n(C)c(=O)n2C | 2.14% (inactive)
* CSc1nc(N(C)NC(=O)c2cccc(C)c2)c2ccccc2n1 | 90.9% (active)
* Cc1c(NC(=O)CSc2nnnn2-c2ccc(C(=O)O)cc2)c(=O)n(-c2ccccc2)n1C | 9.83% (inactive)
* CN(C)c1cc[n+](Cc2ccccc2)cc1 | 66.3% (active)
* CCN(CC)c1ccc(/C=N/NC(=O)c2cnccn2)c(O)c1 | 34.4% (active)
* Cc1cc(OCCCC(=O)NCCN2C(=O)S/C(=C\c3cccnc3)C2=O)ccc1Cl | 6.03% (inactive)

What does the data say about its inhibition? Entry: C[C@@H]1C[C@@H]2O[C@H]2/C=C\C=C\C(=O)Cc2c(Cl)c(O)cc(O)c2C(=O)O1
104% (active)

What does the data say about its inhibition? Entry: COc1ccc(Cl)cc1NC(=O)NC(C)C(C)(C)C (centres undefined)
2.98% (inactive)

What does the data say about its inhibition? Entry: O=C1CC(c2ccccc2)CC(O)=C1C=NCCN1CCOCC1 (centres undefined)
2.34% (inactive)

What does the data say about its inhibition? Entry: Cc1cc(Oc2ccccc2)nc(N2CCOCC2)n1
2.47% (inactive)

What does the data say about its inhibition? Entry: CCCNC(=O)OC[C@H]1O[C@H](CCO/N=C/[C@@H](NS(=O)(=O)c2ccc(C)cc2)[C@H](C)/C=C/CC(=O)OC)C=C[C@@H]1Oc1ccc(OC)cc1
1.98% (inactive)

What does the data say about its inhibition? Entry: CN(NC(=O)c1ccccc1)c1nc2ccccc2nc1C(F)(F)F
5.67% (inactive)

---

Reported inhibition values for a set of compounds
experiment: parental Ba/F3 cell viability inhibition, counter-screen for JAK2V617F inhibitor project, murine pro-B, CellTiter-Glo luminescence (AID 1486); settings: CellTiter-Glo ATP luminescence, at 5.6 µM, hits give high values;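 note: 0% = DMSO wells and 100% = JAK Inhibitor I control wells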
The campaign covered roughly 220,000 compounds. About 2,400 (1.1%) were called active. Only a selection was taken, and actives are over-represented in it overall.

Worked examples follow.
- Cc1ccccc1NC(=O)CN1C(=O)N/C(=C\c2cccn2-c2cccc(C(=O)O)c2)C1=O: 7.07% (inactive)
- COc1cc(C2CC(=O)c3cnc(NC(C)=O)nc3C2)cc(OC)c1OC (stereo not given): 2.9% (inactive)
- COC(=O)c1ccc(Cc2ccccc2)o1: 1.87% (inactive)
- O=C(O)CCCC(=O)Nc1ccc(Oc2cccc(C(F)(F)F)c2)nc1: -1.72% (inactive)
- Cc1csc(NC(=O)NC2(C(F)(F)F)Oc3ccccc3O2)n1: 13.6% (inactive)
- CCOC(=O)c1[nH]c2c(c1-c1ccccc1)C(=O)CC(c1ccc(Cl)cc1)C2 (stereo not given): 8.29% (inactive)

// next item, inhibition requested
What does the data say about its inhibition? Entry: CN1/C(=C\C=C2\N=C(c3ccc(F)cc3)OC2=O)C(C)(C)c2ccccc21
30.4% (active)
